This collection of values is drawn from patent US11739098B2.

target: UniProtKB Q9NR97; assay: TLR8 inhibition reporter assay (HEK-Blue cells, SEAP reporter, R848 stimulation); conditions: HEK-Blue cells overexpressing human TLR8, SEAP reporter, R848 15.9 μM
Sequence (Q9NR97 27-1041): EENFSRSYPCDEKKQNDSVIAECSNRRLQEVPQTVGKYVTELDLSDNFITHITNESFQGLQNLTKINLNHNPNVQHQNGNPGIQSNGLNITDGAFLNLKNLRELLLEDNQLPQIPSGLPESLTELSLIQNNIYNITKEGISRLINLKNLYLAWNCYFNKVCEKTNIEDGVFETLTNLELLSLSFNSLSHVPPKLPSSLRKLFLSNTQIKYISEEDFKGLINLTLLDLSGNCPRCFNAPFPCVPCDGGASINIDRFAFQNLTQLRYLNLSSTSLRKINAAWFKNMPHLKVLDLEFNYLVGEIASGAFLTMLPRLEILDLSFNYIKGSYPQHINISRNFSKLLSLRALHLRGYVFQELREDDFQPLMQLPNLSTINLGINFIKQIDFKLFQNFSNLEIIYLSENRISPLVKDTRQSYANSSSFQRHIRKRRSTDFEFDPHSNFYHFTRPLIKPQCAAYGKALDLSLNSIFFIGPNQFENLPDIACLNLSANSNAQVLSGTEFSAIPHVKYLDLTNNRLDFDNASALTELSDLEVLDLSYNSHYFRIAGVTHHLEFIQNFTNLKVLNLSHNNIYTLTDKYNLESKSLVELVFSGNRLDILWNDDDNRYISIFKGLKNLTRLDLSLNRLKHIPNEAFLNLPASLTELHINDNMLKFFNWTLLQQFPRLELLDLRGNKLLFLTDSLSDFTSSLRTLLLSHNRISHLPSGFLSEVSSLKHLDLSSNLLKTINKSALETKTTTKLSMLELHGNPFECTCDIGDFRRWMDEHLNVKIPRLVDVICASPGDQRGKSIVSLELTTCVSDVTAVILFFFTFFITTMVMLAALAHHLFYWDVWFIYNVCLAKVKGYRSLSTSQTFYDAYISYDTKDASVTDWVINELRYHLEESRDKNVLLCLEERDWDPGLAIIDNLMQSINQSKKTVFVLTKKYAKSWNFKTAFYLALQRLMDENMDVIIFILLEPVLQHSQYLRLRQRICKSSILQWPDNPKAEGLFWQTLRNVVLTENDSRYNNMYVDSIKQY
pIC50: −log10 of the molar value.
Listed compounds paired with reported pIC50

These recorded examples may help you get a feel for the data.
CCc1c(-c2ccnc3[nH]ncc23)[nH]c2ccc(C3CCNCC3)cc12 : > 7.00
Cc1c(-c2[nH]c3ccc(C4CCN(CC(=O)N(C)C)CC4)cc3c2C(C)C)cn2ccnc2c1Cl : > 7.00
Cc1cc(-c2[nH]c3ccc(C4CCN(CC(=O)N(C)C)CC4)cc3c2C(C)C)cc2ocnc12 : > 7.00
Cc1cn2cc(-c3[nH]c4ccc(C5CCN(C(C)C)CC5)cc4c3C(C)C)ccc2n1 : 6.00 to 7.00
CC(C)(O)CC(=O)N1CCC(c2ccc3[nH]c(-c4cc(F)c5nccn5c4)c(CC(F)F)c3c2)CC1 : < 5.51
CC(C)c1c(-c2ccnc3[nH]ncc23)[nH]c2ccc(C3CCN(Cc4ncc[nH]4)CC3)cc12 : > 7.00
Cc1cc(-c2[nH]c3ccc(C4CCN(C(=O)C[C@@H](C)O)CC4)cc3c2C(C)C)cn2nnnc12 : > 7.00
Cc1cc2nnnn2cc1-c1[nH]c2ccc(C3CCN(CC(N)=O)CC3)cc2c1C(C)C : > 7.00

**Query** Can you share its pIC50? I mean this compound: `Cc1cc(-c2[nH]c3ccc(C4CCN(C(=O)[C@@H]5C[C@@H](O)CN5)CC4)cc3c2C(C)C)cc2nccn12`
**Result** 4.30 to 6.00

**Query** What would you report for `CNCCN1CCC(c2ccc3[nH]c(-c4ccc5c(c4)OCO5)c(C)c3c2)CC1` ?
**Result** 6.00 to 7.00

**Query** What would you report for `CCc1c(-c2c[nH]c3ncncc23)[nH]c2ccc(C3CCNCC3)cc12` ?
**Result** > 7.00

**Query** What would you report for `CC(C)c1c(-c2ccc3oc(=O)[nH]c3c2)[nH]c2ccc(C3CCNCC3)cc12` ?
**Result** 6.00 to 7.00

**Query** What would you report for `COCCN1CCC(c2ccc3[nH]c(-c4cc(OC)n5ncnc5c4)c(C(C)C)c3c2)CC1` ?
**Result** > 7.00

###

Target: human TLR7 (Homo sapiens, UniProt Q9NYK1)
Sequence (Q9NYK1 27-1049): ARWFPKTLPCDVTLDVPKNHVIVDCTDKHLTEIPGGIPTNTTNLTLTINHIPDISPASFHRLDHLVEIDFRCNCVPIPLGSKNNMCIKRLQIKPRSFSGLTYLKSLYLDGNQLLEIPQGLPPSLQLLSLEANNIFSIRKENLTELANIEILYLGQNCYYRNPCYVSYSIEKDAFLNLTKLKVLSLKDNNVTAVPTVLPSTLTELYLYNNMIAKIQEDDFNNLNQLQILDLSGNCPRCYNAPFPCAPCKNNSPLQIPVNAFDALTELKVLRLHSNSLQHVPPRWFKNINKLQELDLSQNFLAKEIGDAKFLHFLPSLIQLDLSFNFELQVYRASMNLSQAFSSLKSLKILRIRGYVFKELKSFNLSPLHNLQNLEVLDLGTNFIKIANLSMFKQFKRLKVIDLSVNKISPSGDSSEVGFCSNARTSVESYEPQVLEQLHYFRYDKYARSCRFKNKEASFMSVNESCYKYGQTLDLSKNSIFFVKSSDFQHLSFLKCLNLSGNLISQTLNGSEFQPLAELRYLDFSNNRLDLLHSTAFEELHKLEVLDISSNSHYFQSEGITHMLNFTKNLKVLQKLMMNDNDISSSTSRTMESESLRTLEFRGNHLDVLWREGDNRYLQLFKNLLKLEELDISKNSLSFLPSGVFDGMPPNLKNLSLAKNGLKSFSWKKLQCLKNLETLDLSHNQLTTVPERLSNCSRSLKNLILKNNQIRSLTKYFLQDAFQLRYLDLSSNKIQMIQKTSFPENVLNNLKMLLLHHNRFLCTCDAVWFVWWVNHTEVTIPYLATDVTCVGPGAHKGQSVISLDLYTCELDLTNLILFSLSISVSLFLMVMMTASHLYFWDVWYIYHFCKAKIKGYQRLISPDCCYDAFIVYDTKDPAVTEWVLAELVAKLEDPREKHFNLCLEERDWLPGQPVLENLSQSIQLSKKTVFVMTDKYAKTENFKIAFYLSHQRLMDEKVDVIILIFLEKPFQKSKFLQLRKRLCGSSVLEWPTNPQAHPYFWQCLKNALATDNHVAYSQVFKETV
Test: TLR7 inhibition reporter assay (HEK-Blue cells, SEAP reporter, gardiquimod stimulation)
Conditions: HEK-Blue cells overexpressing human TLR7, SEAP reporter, gardiquimod 7.5 μM
measurementKind: IC50

These recorded examples may help you get a feel for the data.
CNC(=O)CN1CCC(c2ccc3[nH]c(-c4cn5ccnc5c(C)c4C)c(C(C)C)c3c2)CC1 [Example 413] : < 0.1 µM
CCc1c(-c2ccn3ccnc3c2)[nH]c2ccc(C3CCNCC3)cc12 [Example 202] : 1 to 50 µM
Cc1nnn2ccc(-c3[nH]c4ccc(C5CCN(C6CCS(=O)(=O)CC6)CC5)cc4c3C(C)C)cc12 [Example 792] : < 0.1 µM
CCc1c(-c2ccnc3[nH]ncc23)[nH]c2ccc(C3CCN(C(=O)CN)CC3)cc12 [Example 461] : 0.1 to 1 µM
CC(=O)NCCNCC(=O)N1CCC(c2ccc3[nH]c(-c4ccnc5[nH]ncc45)c(C(C)C)c3c2)CC1 [Example 573] : < 0.1 µM
Cc1cc(-c2[nH]c3ccc(C4CCN(C(=O)CN(C)C)CC4)cc3c2C(C)C)nc2scnc12 [Example 543] : < 0.1 µM
CC(C)c1c(-c2ccc3c(O)noc3c2)[nH]c2ccc(C3CCNCC3)cc12 [Example 5] : 0.1 to 1 µM
Cc1n[nH]c2nccc(-c3[nH]c4ccc(C5CCN(Cc6cnc[nH]6)CC5)cc4c3C(C)C)c12 [Example 875] : 0.1 to 1 µM

**Query** Can you share its IC50? I mean this molecule: CC(=O)N1CCC(N2CCC(c3ccc4[nH]c(-c5ccnc6[nH]ncc56)c(C(C)C)c4c3)CC2)CC1 [Example 823]
**Result** < 0.1 µM

**Query** What would you report for CC(C)c1c(-c2cnc3ncccn23)[nH]c2ccc(C3CCNCC3)cc12 [Example 64] ?
**Result** < 0.1 µM
